tested on: PC-3 prostate; assay: NCI tumour cell line growth inhibition, 48 h
Attribute measured: GI50

[[record]]
compound = "Cn1cncc1-c1c(F)cncc1NC(=O)c1c(N)nn2cc(F)cnc12"
meas_value = "3.41 µM"

[[record]]
compound = "CCc1nn2ncccc2c1-c1ccnc(NC2CC2)n1"
meas_value = "> 25 µM"

[[record]]
compound = "CC12OC(C(=O)C13CCC3)C1C(=O)c3ccc4c(ccc5ccccc54)c3C(=O)C12 (stereo not given)"
meas_value = "7.61 µM"

[[record]]
compound = "Cc1ccc(O)c(NC2=C(Cl)C(=O)N(Cc3ccccc3)C2=O)c1"
meas_value = "38.7 µM"

[[record]]
compound = "NC(CSC(c1ccccc1)(c1ccccc1)c1ccc(F)cc1)C(=O)O (stereo not given)"
meas_value = "0.4 µM"

[[record]]
compound = "COc1ccc(-c2nc(N)c(C#N)c3c2CCOc2c-3ccc3ccccc23)cc1"
meas_value = "22 µM"

[[record]]
compound = "COc1cc(CN(c2ccc(C)cc2)C2OC(=O)c3ccccc32)cc(OC)c1OC (stereo not given)"
meas_value = "0.432 µM"

[[record]]
compound = "CC/C(Cc1ccccc1)=C(/c1ccc(O)cc1)c1ccc(OCCN2CCCC2)cc1"
meas_value = "1.79 µM"

[[record]]
compound = "CCOC(=O)C#Cc1c(C(=O)OCC)nnn1[C@@H]1O[C@H](CO)[C@H]2OC3(CCCCC3)O[C@H]21"
meas_value = "13.5 µM"

[[record]]
compound = "CC1=C(C#N)C(/C=C(\\Cl)c2ccc(F)cc2)C(C#N)=C(C)N1"
meas_value = "> 100 µM"

